Where do these numbers come from? They come from PubChem BioAssay (EPA / NIEHS).

subject.of.test: Cellular tumor antigen p53 (Homo sapiens) (UniProt P04637)
Sequence (P04637 whole entry, looked up): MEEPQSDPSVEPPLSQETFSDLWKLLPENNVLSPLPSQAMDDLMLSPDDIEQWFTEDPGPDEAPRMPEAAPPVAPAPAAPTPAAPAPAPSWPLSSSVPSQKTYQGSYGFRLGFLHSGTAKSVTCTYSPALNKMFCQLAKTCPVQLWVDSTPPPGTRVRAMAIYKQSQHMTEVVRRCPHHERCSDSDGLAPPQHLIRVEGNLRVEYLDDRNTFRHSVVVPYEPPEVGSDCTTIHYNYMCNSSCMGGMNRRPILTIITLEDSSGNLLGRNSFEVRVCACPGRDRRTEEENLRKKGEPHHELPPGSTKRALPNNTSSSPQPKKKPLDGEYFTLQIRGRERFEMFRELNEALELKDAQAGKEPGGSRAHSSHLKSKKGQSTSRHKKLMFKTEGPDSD
test.details: TOX21_p53_BLA_p4_ratio: Tox21 HCT-116 p53 Agonism Beta-lactamase Assay, Ratio, Phase 4 (AID 2283601)
Results filed as inconclusive are left out. Calls of active or inactive are those of the source. How the source made its calls: active means hit-call score of the fitted dose curve at least 0.9, where 1 is the maximum; inconclusive means response in the unintended direction; inactive means score below 0.9.
Just give me one of these, please: label 1 (active), label 0 (inactive)

In this assay, the call recorded for CCCC1C(CC)=CC(CC)=CN1c1ccccc1 (stereo not drawn) was what?
label 0

Fill in: this test's call for O=S(=O)(O)c1ccc2c(N=Nc3ccc(S(=O)(=O)O)c4ccccc34)c(O)c(S(=O)(=O)O)cc2c1 is ___
label 0

====

subject.of.test: Cellular tumor antigen p53 (Homo sapiens)
test.details: TOX21_p53_BLA_p4_ratio: Tox21 HCT-116 p53 Agonism Beta-lactamase Assay, Ratio, Phase 4 (AID 2283601)
Records with an inconclusive call do not appear. Calls of active or inactive are those of the source. Rule for the calls: active = hit-call score of the fitted dose curve at least 0.9, where 1 is the maximum; inconclusive = response in the unintended direction; inactive = score below 0.9.
Would you mind answering with one of these outcomes? TRUE = active, FALSE = inactive

| compound | class |
| --- | --- |
| CC(=O)Nc1cccc(O)c1 | FALSE |
| CC(C)C[C@H](NC(=O)CNC(=O)[C@H](Cc1ccc(O)cc1)NC(=O)[C@H](CO)NC(=O)[C@H](Cc1c[nH]c2ccccc12)NC(=O)[C@H](Cc1cnc[nH]1)NC(=O)[C@@H]1CCC(=O)N1)C(=O)N[C@@H](CCCN=C(N)N)C(=O)N1CCC[C@H]1C(=O)NCC(N)=O (stereo in doubt) | FALSE |
| O=C(O)c1cc(O)c2c(c1)C(=O)c1cccc(O)c1C2=O | FALSE |

# fetch the recorded call for CCCCOC(=O)/C=C\C(=O)OCCCC here
FALSE

Record request — test call for O=S(=O)(O)C(F)(F)F
FALSE

Dear all, I need the recorded test outcome for CCCCCCCC[P+](CCCCCCCC)(CCCCCCCC)CCCCCCCC , thank you.
TRUE

====

Read-out: Urokinase-type plasminogen activator receptor (uPAR), PLAUR (gene 5329)
test.details: BSK_CASM3C_uPAR: BioMAP Diversity Plus: CASM3C Assay for Urokinase-type plasminogen activator receptor (uPAR) Biomarker Activity (AID 2283054);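 further: cell-surface uPAR protein level quantified by ELISA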
stated.conditions: primary human coronary artery smooth muscle cells; actives raise or lower the signal
Activity calls are given as the source filed them. Rule for the calls: active = hit-call score of the fitted dose curve at least 0.9, where 1 is the maximum; inactive = score below 0.9.

| molecule | outcome |
| --- | --- |
| Oc1cccc2ccccc12 | inactive |
| COc1ccccc1Oc1c(NS(=O)(=O)c2ccc(C(C)(C)C)cc2)nc(-c2ncccn2)nc1OCCO | inactive |
| CC[N+](CC)(CC(=O)Nc1c(C)cccc1C)Cc1ccccc1 (tested in a mixture with another compound) | inactive |

====

test.details: ATG_TA_CIS: Attagene CIS-FACTORIAL HepG2 Assay for human TA Basal Promoter (AID 2282964)
stated.conditions: HepG2 Attagene CIS-factorial TA basal promoter reporter; actives raise or lower the signal
Active and inactive are the calls of the source. Rule for the calls: active = hit-call score of the fitted dose curve at least 0.9, where 1 is the maximum; inactive = score below 0.9.
// classify into true (1) = active, false (0) = inactive

Answered examples (2):
| molecule | class |
| --- | --- |
| Cc1cc2nc3c(=O)[nH]c(=O)nc-3n(C[C@H](O)[C@H](O)[C@H](O)CO)c2cc1C | false (0) |
| CC=CC(=O)O | false (0) |

Recorded call for CC(O)(P(=O)(O)O)P(=O)(O)O ?
false (0)

I'd appreciate the recorded outcome for C=C(C)C(=O)OCCCCCC from this test.
false (0)

Tell me the assay call for CN(C)c1ccc(C(c2ccccc2)c2ccc(N(C)C)cc2)cc1 please.
false (0)

Identify the outcome logged in this assay for the molecule shown: CC/C=C\CCO
false (0)

Returns: the outcome recorded for CCC(=O)OCc1ccc(OC)cc1 in this assay.
false (0)

Per the records of this test, what outcome belongs to CN(C)CCCN1c2ccccc2CCc2ccc(Cl)cc21 ?
false (0)

====

subject.of.test: Cellular tumor antigen p53 (Homo sapiens) (UniProt P04637)
test.details: TOX21_p53_BLA_p2_ratio: Tox21 HCT-116 p53 Agonism Beta-lactamase Assay, Ratio, Phase 2 (AID 2283592)
Results filed as inconclusive are left out. Activity calls are given as the source filed them. The calls were made as follows: active = hit-call score of the fitted dose curve at least 0.9, where 1 is the maximum; inconclusive = response in the unintended direction; inactive = score below 0.9.
measured.metric: outcome

| molecule | subject.of.test | outcome |
| --- | --- | --- |
| N#Cc1c(F)cccc1F | Cellular tumor antigen p53 (Homo sapiens) (UniProt P04637) | inactive |
| C[C@@H]1C\C=C/C=C/C=C/C=C/[C@H](O[C@@H]2O[C@H](C)[C@@H](O)[C@H](N)[C@@H]2O)C[C@@H]2O[C@](O)(C[C@@H](O)C[C@@H]3O[C@@H]3/C=C\C(=O)O1)C[C@H](O)[C@H]2C(=O)O | Cellular tumor antigen p53 (Homo sapiens) (UniProt P04637) | inactive |
| CCCCCC=CCC1CC(=O)OC1=O (centres undefined) | Cellular tumor antigen p53 (Homo sapiens) (UniProt P04637) | inactive |
| CC(=O)Oc1cccc(C)c1 | Cellular tumor antigen p53 (Homo sapiens) (UniProt P04637) | inactive |
| COS(=O)(=O)C(F)(F)F | Cellular tumor antigen p53 (Homo sapiens) (UniProt P04637) | inactive |

Please give outcome, item by item, for the list that follows.
1. C[C@@H]1CCC[C@H](C)N1
2. CC(C)(C)C(=O)OCOC(=O)[C@@H]1N2C(=O)[C@@H](NC(=O)[C@H](N)c3ccccc3)[C@H]2SC1(C)C
3. CCOC(=O)c1ccccc1
4. CCOc1ccc(O)cc1

["inactive", "inactive", "inactive", "inactive"]

====

subject.of.test: Cellular tumor antigen p53 (Homo sapiens) (UniProt P04637)
test.details: TOX21_p53_BLA_p3_ratio: Tox21 HCT-116 p53 Agonism Beta-lactamase Assay, Ratio, Phase 3 (AID 2283596)
Experimental: TOX21_p53_BLA_p3 is a cell-based, single-readout assay that uses HCT116, a human intestinal cell line, […] in a 1536-well plate.TOX21_p53_BLA_p3_ratio is an assay readout measuring reporter gene via receptor activity and designed using inducible reporter (beta lactamase induction) detected with GAL4 b-lactamase reporter gene. […] This assay endpoint, TOX21_p53_BLA_p3_ratio, was analyzed in the positive analysis fitting direction relative to DMSO as the negative control and baseline of activity. […]
Results filed as inconclusive are left out. Activity calls are given as the source filed them. The calls were made as follows: active = hit-call score of the fitted dose curve at least 0.9, where 1 is the maximum; inconclusive = response in the unintended direction; inactive = score below 0.9.
Can you answer with just one of these options? 1 (active), 0 (inactive)

Examples with answers:
| compound | class |
| --- | --- |
| CC(C)(C)OC(=O)c1ccccc1C(=O)O | 0 |
| C=C(C)C(=O)OCCCC | 0 |
| O=C(Nc1ccc([N+](=O)[O-])cc1)Nc1ccc([N+](=O)[O-])cc1 | 0 |

Per the records of this test, what outcome belongs to O=c1[nH]c(=O)n([C@H]2C[C@H](O)[C@@H](CO)O2)cc1I ?
0

So what was the verdict on CN(C)CCCN1c2ccccc2CCc2ccc(Cl)cc21 in this test?
0

Please indicate how the test categorized CCN1CCCC1CNC(=O)c1cc(S(=O)(=O)CC)ccc1OC (stereo not drawn) .
0

====

subject.of.test: Cellular tumor antigen p53 (Homo sapiens) (UniProt P04637)
test.details: TOX21_p53_BLA_p2_ratio: Tox21 HCT-116 p53 Agonism Beta-lactamase Assay, Ratio, Phase 2 (AID 2283592)
Experimental: TOX21_p53_BLA_p2 is a cell-based, single-readout assay that uses HCT116, a human intestinal cell line, […] in a 1536-well plate.TOX21_p53_BLA_p2_ratio is an assay readout measuring reporter gene via receptor activity and designed using inducible reporter (beta lactamase induction) detected with GAL4 b-lactamase reporter gene. […] This assay endpoint, TOX21_p53_BLA_p2_ratio, was analyzed in the positive analysis fitting direction relative to DMSO as the negative control and baseline of activity. […]
Inconclusive results are not listed. Calls of active or inactive are those of the source. The calls were made as follows: active = hit-call score of the fitted dose curve at least 0.9, where 1 is the maximum; inconclusive = response in the unintended direction; inactive = score below 0.9.
Returns: one label drawn from active, inactive

Some solved entries appear below for comparison.
| compound | subject.of.test | class |
| --- | --- | --- |
| CCCCC(=O)OCC(=O)[C@]1(O)Cc2c(O)c3c(c(O)c2[C@@H](O[C@H]2C[C@H](NC(=O)C(F)(F)F)[C@H](O)[C@H](C)O2)C1)C(=O)c1c(OC)cccc1C3=O | Cellular tumor antigen p53 (Homo sapiens) (UniProt P04637) | active |
| CCCCCCCCCCCCCCCC[N+](C)(C)CCN(Cc1ccc(OC)cc1)c1ncccn1 | Cellular tumor antigen p53 (Homo sapiens) (UniProt P04637) | inactive |
| COc1ccc(C2C(=O)c3ccccc3C2=O)cc1 | Cellular tumor antigen p53 (Homo sapiens) (UniProt P04637) | inactive |
| Cc1cc(C)c(NC(=O)C[C@H](CC(=O)O)c2cccc3ccccc23)c(C(=O)N2CCC3(CCCC3)CC2)c1 | Cellular tumor antigen p53 (Homo sapiens) (UniProt P04637) | inactive |
| O=C(c1ccccc1)c1ccc2n1CCC2C(=O)O (stereo not given) | Cellular tumor antigen p53 (Homo sapiens) (UniProt P04637) | inactive |
| CC(=O)OCC1=C(C(=O)O)N2C(=O)[C@@H](NC(=O)Cc3cccs3)[C@H]2SC1 | Cellular tumor antigen p53 (Homo sapiens) (UniProt P04637) | inactive |
| O=C(Nc1ccc([N+](=O)[O-])cc1)Nc1ccc([N+](=O)[O-])cc1 | Cellular tumor antigen p53 (Homo sapiens) (UniProt P04637) | inactive |
| CC1(C)C(=O)C(C)(C)C1=O | Cellular tumor antigen p53 (Homo sapiens) (UniProt P04637) | inactive |
| COC(=O)C1=C(C)NC(COC(N)=O)=C(C(=O)OC(C)C)C1c1cccc(Cl)c1Cl (stereo not given) | Cellular tumor antigen p53 (Homo sapiens) (UniProt P04637) | active |
| CC(C)C[C@H](NC(=O)[C@@H](COC(C)(C)C)NC(=O)[C@H](Cc1ccc(O)cc1)NC(=O)[C@H](CO)NC(=O)[C@H](Cc1c[nH]c2ccccc12)NC(=O)[C@H](Cc1cnc[nH]1)NC(=O)[C@@H]1CCC(=O)N1)C(=O)N[C@@H](CCCN=C(N)N)C(=O)N1CCC[C@H]1C(=O)NNC(N)=O | Cellular tumor antigen p53 (Homo sapiens) (UniProt P04637) | inactive |

Hi, do you know how CCCCOC(=O)c1ccccc1C(=O)OCC(CC)CCCC (stereo not given) came out in this test?
inactive
